# system: Angiotensin II receptor (AT-1) type-1 (Rattus norvegicus, UniProt P29089+P25095)
# assayProtocol: Displacement of [125I]-angiotensin 2 from angiotensin AT1 receptor in Rattus norvegicus (rat) uterine membranes
endpoint: pIC50

• CCCCc1nn(CCC(C)CC(C)(C)C)c(=O)n1Cc1ccc(-c2ccccc2-c2nn[nH]n2)cc1 (stereo not given) = 7.456
• CCCCc1nn(CCCC)c(=O)n1Cc1ccc(-c2ccccc2C(=O)O)cc1 = 6.996
• CCCCc1nn(CCCCC(=O)O)c(=O)n1Cc1ccc(-c2ccccc2-c2nn[nH]n2)cc1 = 7.921
• CCCCc1nn(CCC2CCCCC2)c(=O)n1Cc1ccc(-c2ccccc2-c2nn[nH]n2)cc1 = 7.745
• CCCCc1nn(Cc2ccccc2)c(=O)n1Cc1ccc(-c2ccccc2-c2nn[nH]n2)cc1 = 7.796
• CCCCc1nn(CCC)c(=O)n1Cc1ccc(-c2ccccc2-c2nn[nH]n2)cc1 = 7.824
• CCCCCCn1nc(CCCC)n(Cc2ccc(-c3ccccc3-c3nn[nH]n3)cc2)c1=O = 8.06
• CCCCc1nnc(O)n1Cc1ccc(-c2ccccc2C(=O)O)cc1 = 5.824
• CCCCc1nn(CC(=O)c2cc(OC)ccc2OC)c(=O)n1Cc1ccc(-c2ccccc2-c2nn[nH]n2)cc1 = 7.678
• CCCCCCCCn1nc(CCCC)n(Cc2ccc(-c3ccccc3-c3nn[nH]n3)cc2)c1=O = 6.77
• CCCCc1nn(CC(O)c2cc(OC)ccc2OC)c(=O)n1Cc1ccc(-c2ccccc2-c2nn[nH]n2)cc1 (stereo not given) = 7.658
• CCCCc1nn(CCCCCC(=O)O)c(=O)n1Cc1ccc(-c2ccccc2-c2nn[nH]n2)cc1 = 7.77
• CCCCc1nn(CC(=O)O)c(=O)n1Cc1ccc(-c2ccccc2-c2nn[nH]n2)cc1 = 7.041
• CCCCc1nnc(O)n1Cc1ccc(-c2ccccc2-c2nn[nH]n2)cc1 = 7.377
• CCCCc1nn(CCCc2ccccc2)c(=O)n1Cc1ccc(-c2ccccc2-c2nn[nH]n2)cc1 = 7.745
• CCCCc1nn(C(C)(C)C(=O)c2ccccc2)c(=O)n1Cc1ccc(-c2ccccc2-c2nn[nH]n2)cc1 = 7.367
• CCCCCn1nc(CCCC)n(Cc2ccc(-c3ccccc3-c3nn[nH]n3)cc2)c1=O = 8.252
• CCCCc1nn(CC(OCCC)c2ccccc2)c(=O)n1Cc1ccc(-c2ccccc2-c2nn[nH]n2)cc1 (stereo not given) = 7.347
• CCCCc1nn(Cc2ccc3ccccc3c2)c(=O)n1Cc1ccc(-c2ccccc2-c2nn[nH]n2)cc1 = 6.553
• CCCCc1nn(CC(=O)OCC)c(=O)n1Cc1ccc(-c2ccccc2-c2nn[nH]n2)cc1 = 8.046
• CCCCc1nn(C(C)CC)c(=O)n1Cc1ccc(-c2ccccc2-c2nn[nH]n2)cc1 (stereo not given) = 8
• CCCCc1nn(CC(OCC(=O)O)c2ccccc2)c(=O)n1Cc1ccc(-c2ccccc2-c2nn[nH]n2)cc1 (stereo not given) = 7.523
• CCCCc1nn(CC(OCC)c2ccccc2)c(=O)n1Cc1ccc(-c2ccccc2-c2nn[nH]n2)cc1 (stereo not given) = 7.824
• CCCCc1nn(CC(OCC(=O)OCC)c2ccccc2)c(=O)n1Cc1ccc(-c2ccccc2-c2nn[nH]n2)cc1 (stereo not given) = 6.745
• CCCCc1nn(CC(OC)c2ccccc2)c(=O)n1Cc1ccc(-c2ccccc2-c2nn[nH]n2)cc1 (stereo not given) = 7.921

----------
Entries and their IC50
# system: Angiotensin II receptor (AT-1) type-1 (Rattus norvegicus, UniProt P29089+P25095)
# assayProtocol: Displacement of [125I]-angiotensin 2 from angiotensin AT1 receptor in Rattus norvegicus (rat) uterine membranes
endpoint: IC50 (nM)

* CCCCc1nn(C(CC(=O)OCC)C(=O)c2ccccc2)c(=O)n1Cc1ccc(-c2ccccc2-c2nn[nH]n2)cc1 (stereo unspecified) | 36
* CCCCc1nn(CC(OCC(=O)OCC)c2ccccc2)c(=O)n1Cc1ccc(-c2ccccc2-c2nn[nH]n2)cc1 (stereo unspecified) | 180
* CCCCc1nn(CC(=O)c2cc(OC)ccc2OC)c(=O)n1Cc1ccc(-c2ccccc2-c2nn[nH]n2)cc1 | 21
* CCCCc1nnc(O)n1Cc1ccc(-c2ccccc2C(=O)O)cc1 | 1500
* CCCCCn1nc(CCCC)n(Cc2ccc(-c3ccccc3-c3nn[nH]n3)cc2)c1=O | 5.6
* CCCCc1nn(Cc2ccccc2)c(=O)n1Cc1ccc(-c2ccccc2-c2nn[nH]n2)cc1 | 16

----------
# system: Angiotensin II receptor (AT-1) type-1 (Rattus norvegicus, UniProt P29089+P25095)
# Sequence (P29089 whole entry): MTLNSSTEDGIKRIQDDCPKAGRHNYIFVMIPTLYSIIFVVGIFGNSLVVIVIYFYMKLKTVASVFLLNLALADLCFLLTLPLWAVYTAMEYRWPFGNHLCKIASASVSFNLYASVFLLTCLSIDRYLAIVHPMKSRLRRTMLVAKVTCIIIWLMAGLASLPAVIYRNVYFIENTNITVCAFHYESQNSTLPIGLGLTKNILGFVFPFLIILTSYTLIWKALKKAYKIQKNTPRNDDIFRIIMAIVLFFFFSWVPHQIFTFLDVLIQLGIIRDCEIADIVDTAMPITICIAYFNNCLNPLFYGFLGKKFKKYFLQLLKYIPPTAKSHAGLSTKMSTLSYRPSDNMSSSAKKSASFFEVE
# Sequence (P25095 whole entry): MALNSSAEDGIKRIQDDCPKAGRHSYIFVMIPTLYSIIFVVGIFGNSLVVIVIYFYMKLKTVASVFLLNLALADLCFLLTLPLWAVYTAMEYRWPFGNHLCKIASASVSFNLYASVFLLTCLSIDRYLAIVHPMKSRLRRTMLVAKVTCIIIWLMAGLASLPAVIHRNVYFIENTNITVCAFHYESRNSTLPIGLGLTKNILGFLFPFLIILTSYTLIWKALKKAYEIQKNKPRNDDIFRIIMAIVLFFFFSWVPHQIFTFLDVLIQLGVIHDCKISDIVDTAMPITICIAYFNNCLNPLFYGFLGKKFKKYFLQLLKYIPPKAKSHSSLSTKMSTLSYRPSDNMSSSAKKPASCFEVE
# assayProtocol: Displacement of [125I]-angiotensin 2 from angiotensin AT1 receptor in Rattus norvegicus (rat) uterine membranes
endpoint: pIC50

- CCCCc1nn(CCc2ccccc2)c(=O)n1Cc1ccc(-c2ccccc2-c2nn[nH]n2)cc1: 8.509
- CCCCc1nn(CCCCCC(=O)OCC)c(=O)n1Cc1ccc(-c2ccccc2-c2nn[nH]n2)cc1: 8.009
- CCCCc1nn(C(CC(=O)OCC)C(=O)c2ccccc2)c(=O)n1Cc1ccc(-c2ccccc2-c2nn[nH]n2)cc1 (stereo not drawn): 7.444
- CCCCc1nn(C(Cc2ccccc2)C(=O)c2ccccc2)c(=O)n1Cc1ccc(-c2ccccc2-c2nn[nH]n2)cc1 (stereo not drawn): 5.237
- CCCCc1nn(CC(O)c2ccccc2)c(=O)n1Cc1ccc(-c2ccccc2-c2nn[nH]n2)cc1 (stereo not drawn): 8.444
- CCCCc1nn(CC(OCc2ccccc2)c2ccccc2)c(=O)n1Cc1ccc(-c2ccccc2-c2nn[nH]n2)cc1 (stereo not drawn): 6.553
- CCCCc1nn(CC(=O)C23CC4CC(CC(C4)C2)C3)c(=O)n1Cc1ccc(-c2ccccc2-c2nn[nH]n2)cc1: 7.602
- CCCCc1nn(CC(=O)OC(C)(C)C)c(=O)n1Cc1ccc(-c2ccccc2-c2nn[nH]n2)cc1: 7.796

----------
# system: Angiotensin II receptor (AT-1) type-1 (Rattus norvegicus, UniProt P29089+P25095)
# assayProtocol: Displacement of [125I]-angiotensin 2 from angiotensin AT1 receptor in Rattus norvegicus (rat) uterine membranes
IC50 overview
endpoint: IC50 (nM)

• CCCCc1nn(C(C)(C)C(=O)c2ccccc2)c(=O)n1Cc1ccc(-c2ccccc2-c2nn[nH]n2)cc1 = 43
• CCCCc1nn(CC(OCC(=O)O)c2ccccc2)c(=O)n1Cc1ccc(-c2ccccc2-c2nn[nH]n2)cc1 (centres undefined) = 30
• CCCCc1nn(CC(=O)OC(C)(C)C)c(=O)n1Cc1ccc(-c2ccccc2-c2nn[nH]n2)cc1 = 16
• CCCCc1nn(CCC2CCCCC2)c(=O)n1Cc1ccc(-c2ccccc2-c2nn[nH]n2)cc1 = 18

----------
# system: Angiotensin II receptor (AT-1) type-1 (Rattus norvegicus, UniProt P29089+P25095)
# assayProtocol: Displacement of [125I]-angiotensin 2 from angiotensin AT1 receptor in Rattus norvegicus (rat) uterine membranes
endpoint: IC50 (µM)

• CCCCCCCCn1nc(CCCC)n(Cc2ccc(-c3ccccc3-c3nn[nH]n3)cc2)c1=O = 0.17
• CCCCc1nn(C(Cc2ccccc2)C(=O)c2ccccc2)c(=O)n1Cc1ccc(-c2ccccc2-c2nn[nH]n2)cc1 (centres undefined) = 5.8
• CCCCc1nn(CC(O)c2cc(OC)ccc2OC)c(=O)n1Cc1ccc(-c2ccccc2-c2nn[nH]n2)cc1 (centres undefined) = 0.022
• CCCCCCn1nc(CCCC)n(Cc2ccc(-c3ccccc3-c3nn[nH]n3)cc2)c1=O = 0.0087
• CCCCc1nn(CC(O)c2ccccc2)c(=O)n1Cc1ccc(-c2ccccc2-c2nn[nH]n2)cc1 (centres undefined) = 0.0036
• CCCCc1nn(CCCCC(=O)O)c(=O)n1Cc1ccc(-c2ccccc2-c2nn[nH]n2)cc1 = 0.012
• CCCCc1nn(CCC(C)CC(C)(C)C)c(=O)n1Cc1ccc(-c2ccccc2-c2nn[nH]n2)cc1 (centres undefined) = 0.035
• CCCCc1nn(CCCc2ccccc2)c(=O)n1Cc1ccc(-c2ccccc2-c2nn[nH]n2)cc1 = 0.018
• CCCCc1nnc(O)n1Cc1ccc(-c2ccccc2-c2nn[nH]n2)cc1 = 0.042

Ref: ChEMBL document CHEMBL3045845
